Assay summary: folding stability dG unfold (combined trypsin and chymotrypsin); higher = more stable
# folding stability dG unfold per entry
Answer format reminder: number followed by unit.

Please review the following examples before continuing.
>  <Residue string>
SAGGPPVAEIRVTEEDPETGVVRMEATLPEAPRPVRATGTRLDPGGGTVLVTVTDPDGGPDTTTTLAASAGG [r13_337_JUSTAS]

>  <folding stability dG unfold>
0.0684 kcal/mol

$$$$
>  <Residue string>
SAGGSAGGSAGGGSMTLTEVFVDPETGTRTVRTTTLYTLPNGTLTSTTTTTVEPLPGELSAGGSAGGSAGGS [r10_1258_JUSTAS]

>  <folding stability dG unfold>
1.76 kcal/mol

$$$$
>  <Residue string>
SAGGSAAKITEVEVEELEDGEVLIRVKVKPEDIDALLELAKKLPEENIELVEKREDGYYVLRIKRPSAGGSA [r15_386_TrROS_Hall]

>  <folding stability dG unfold>
1.67 kcal/mol

$$$$

Pending sequence:
Tell me the measured folding stability dG unfold of SGSTHTVRPPGGLTLTFTFSTDGTTEEAAQALKEALAAALPPDVTVTFDRIDPDKPVTPDEAATVDATVVSA [r9_178_JUSTAS] , please.
1.21 kcal/mol

----------
Assay summary: folding stability dG unfold from chymotrypsin proteolysis; higher = more stable
Consider the following sequences and their measured folding stability dG unfold readings.
Field format: number, assumed kcal/mol, no unit text.

>  <Residue string>
SAGGEMVTIRVRAPDPEKLIEALREEFPEGLTIRPFPRPTPDGYEVLIVVPAERPEELLEAVERAIGSAGGS [r16_43_TrMRF]

>  <Units label>
kcal/mol

>  <folding stability dG unfold>
2.17

$$$$

Entry under review: SAGGSMVIRVETPEEAEEAARELAERLRELFPEVKELEIKVKVEVVDEETGEEKEYEFTIKLKLPPSAGGSA [r2_393_TrROS_Hall] . Reported folding stability dG unfold?
2.62

Look at this sequence and give its reported folding stability dG unfold. SAGGSAMTITVTEETDPNTDRKTTTVSLSPGVSEEVLEELKAEAEKKGAKLTVYPEEGVVTVVTPESAGGSA [r15_542_JUSTAS]
0.311

Query (sequence): SAKVVIIKVKSPEELKAAIEELKKKLPEGAVIYIVNEDGSVYKITFDKKTGKVKIEKVKSLEELKKLLKSAG [r14_913_TrROS_Hall] ; field requested: folding stability dG unfold
3.96

----------
Assay summary: folding stability dG unfold (combined trypsin and chymotrypsin); higher = more stable
The sequences listed here are annotated with their folding stability dG unfold.
Only the number, expressed in kcal/mol, is required.

>  <Residue string>
SAGGSAGGSKMLLVKVYIEETKEEIVIEVPEGMTLEEIAERLRELGYKIKKIEVYELPPPPEESAGGSAGGS [r12_955_TrROS_Hall]

>  <folding stability dG unfold, kcal/mol>
4.11

$$$$
>  <Residue string>
SAGGGLALRLEVETERVEREVFDADGRLVAREEVEVRRVRLELVPLPPAPPPPTVTVRPGDPRDPRLRSAGG [r13_508_TrROS_Hall]

>  <folding stability dG unfold, kcal/mol>
2.69

$$$$
>  <Residue string>
SAGGSAGGSAGGMKLVITLKDPNSDKTYTVTLPIEDKSPEEVIQEIEEKLGVEVVEVKPESAGGSAGGSAGG [r7_590_JUSTAS]

>  <folding stability dG unfold, kcal/mol>
2.02

$$$$
>  <Residue string>
SAGGNFVVPFKDPEQVKEIREAAEKGEEIEITPPDGKKFTFKVESVEVDPESGRVVIKLPSGKEFPLSAGGS [r16_254_TrMRF]

>  <folding stability dG unfold, kcal/mol>
0.617

$$$$
>  <Residue string>
SAGGYVTSPMSPEIEAKAKEAGKTIDEAKELVIPVNDGGKFRTVKVTFYPETGTVAFYYEDTGEWSNLLSAG [r5_545_JUSTAS]

>  <folding stability dG unfold, kcal/mol>
0.957

$$$$

Kindly consider the entry below.
Which measured folding stability dG unfold value corresponds to SAGGSAGGSSSSSVVTKPLPEEPLLVVTTTLPPSTPPGTTSTTTIIEPETGKVLETTDINIPSSAGGSAGGS [r12_564_JUSTAS] ?
1.41

Ref: the supplement of paper PMC12764529
